B1: tRNA (parent)
chain: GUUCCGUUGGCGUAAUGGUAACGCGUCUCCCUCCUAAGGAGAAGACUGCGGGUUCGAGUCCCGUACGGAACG

- Variants of: B1
- Test Protocol: yeast fitness relative to wild type (ratio to wild type); higher = fitter; tRNA-Arg(CCU), competitive growth, 37 C, YPD
Variants at the floor of the assay were thinned out.
Each entry below carries its reported yeast fitness.
// print number alone

Take a look at these entries with their results.
| Variant Designation | yeast fitness |
| --- | --- |
| A20U G52A | 0.759 |
| U3C A57G | 0.714 |
| A21U G68C | 0.687 |
| C5A U13A U32C U35A U59C A70U | 0.547 |
| A45C G50A A57G | 0.665 |
| G6C U64A | 0.853 |
| C11U C31G | 0.791 |
| U8C U54G U64A | 0.543 |

Task: Consider the variant A45C C66G and give its recorded yeast fitness.
Output: 0.586

Task: Look up and report measured yeast fitness for this entry: U3G C29G A45G
Output: 0.594

Task: Supply yeast fitness value. Item: C11G A15G C22A U26A A40U C62A
Output: 0.638

Task: Please indicate yeast fitness recorded for U8C A57G C66U
Output: 0.704

Task: # return recorded yeast fitness for entry U13A C33A A36U A70C
Output: 0.518
